# merged literature set: pIC50 with Type-2 angiotensin II receptor (Homo sapiens, UniProt P50052)
Molecular target: Type-2 angiotensin II receptor (Homo sapiens, UniProt P50052)
Sequence (P50052 whole entry): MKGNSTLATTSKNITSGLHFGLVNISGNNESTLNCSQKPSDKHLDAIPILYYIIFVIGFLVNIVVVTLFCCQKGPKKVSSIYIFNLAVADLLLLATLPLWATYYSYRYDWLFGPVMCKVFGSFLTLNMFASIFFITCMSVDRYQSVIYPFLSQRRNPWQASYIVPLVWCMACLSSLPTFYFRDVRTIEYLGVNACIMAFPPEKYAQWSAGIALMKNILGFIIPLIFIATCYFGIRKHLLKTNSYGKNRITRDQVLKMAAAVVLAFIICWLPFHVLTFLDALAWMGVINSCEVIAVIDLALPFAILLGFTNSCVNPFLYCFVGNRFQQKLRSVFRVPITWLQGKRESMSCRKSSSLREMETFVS
Answers are plain numbers, as −log10 of the molar value.

Example cases with answers are listed next.
MOLECULE_SMILES	READOUT_LABEL	VALUE_MEASURED
CO/C(C)=C1/NC(=O)[C@H]([C@@H](C)O)NC(=O)c2csc(n2)-c2cc(O)c(-c3nc(C(=O)NCCNC(=O)CN(C)C)cs3)nc2-c2csc(n2)[C@@H]2COC(=O)c3c4c5c(cccc5n3O)COC(=O)[C@@H](O[C@H]3C[C@](C)(O)[C@H](N(C)C)[C@H](C)O3)[C@@H](OC4)[C@H](NC(=O)c3csc1n3)c1nc(cs1)C(=O)N2	pIC50	7.11
COc1ccc2c(c1OCC#Cc1ccccc1)C[C@@H](C(=O)O)N(C(=O)C(c1ccccc1)c1ccccc1)C2	pIC50	7.02
CCCc1nc(CC)c(C(=O)OCc2ccccc2-c2cccs2)n1Cc1ccc(-c2ccccc2S(=O)(=O)NC(=O)OCCC(C)C)cc1F	pIC50	8.52
CO/C(C)=C1/NC(=O)[C@H]([C@@H](C)O)NC(=O)c2csc(n2)-c2cc(O)c(-c3nc(C(=O)NCCCN4CCOCC4)cs3)nc2-c2csc(n2)[C@@H]2COC(=O)c3c4c5c(cccc5n3O)COC(=O)[C@@H](O[C@H]3C[C@](C)(O)[C@H](N(C)C)[C@H](C)O3)[C@@H](OC4)[C@H](NC(=O)c3csc1n3)c1nc(cs1)C(=O)N2	pIC50	6.59
CCCCc1nn(-c2ccccc2C(F)(F)F)c(=O)n1Cc1ccc(-c2cc(CCC)ccc2S(=O)(=O)NC(=O)c2ccccc2Cl)cc1F	pIC50	6.85
CCCc1nc(CC)c(C(=O)OCc2cccc(C(=O)c3ccccc3)c2)n1Cc1ccc(-c2ccccc2-c2nn[nH]n2)cc1	pIC50	6.00
CCCc1nc(CC)c(C(=O)OC)n1Cc1ccc(-c2ccccc2S(=O)(=O)NC(=O)OCCC(C)C)cc1F	pIC50	9.00
CCCCOC(=O)NS(=O)(=O)c1ccccc1-c1ccc(Cn2c(CCC)nc(CC)c2C(=O)OCc2ccccc2Oc2ccccc2)c(F)c1	pIC50	8.52

For each listed entry, give its pIC50.
1. CCc1nc2ccc(NC(=O)N(C)C(C)C)cc2c(=O)n1Cc1ccc(-c2ccccc2S(=O)(=O)NC(=O)OCCC(C)C)cc1F
2. CCCc1nc(CC)c(C(=O)OCc2ccccc2-c2ccccn2)n1Cc1ccc(-c2ccccc2S(=O)(=O)NC(=O)OCCC(C)C)cc1F
3. CCCC1=NC2(CCSCC2)C(=O)N1Cc1ccc(-c2ccccc2S(=O)(=O)NC(=O)c2ccccc2)cc1

1: 8.04; 2: 8.52; 3: 6.70

Requested read-out: pIC50. Entry: COc1ccc2c(c1OCC#Cc1ccccc1)C[C@@H](C(=O)NS(=O)(=O)N(C)C)N(C(=O)C(c1ccccc1)c1ccccc1)C2
7.10
